target: Bromodomain-containing protein 4 (Homo sapiens); assay: Inhibition of HYSGRGK(Ac)GGK(Ac)GLGK(Ac)GGAK(Ac)RHRK(Biotin)-OH binding to recombinant human His6-tagged BRD4 bromodomain 1 (N44 to E168 residues) expressed in Escherichia coli BL21 (DE3) cells measured after 2 hrs by Alphascreen assay
Readout: log10 IC50 (log10 of the value in nM)
A difference of one corresponds to tenfold IC50; all values are log10 with IC50 in nM.

> print(dat)
                                   compound  observed.result
1  Cc1noc2ccc(-c3nc4ccc(N5CCOCC5)cc4n3CC3CCCCC3)cc12             2.26

Hello, I would appreciate it if you could give log10 IC50 for each entry below.
1. CCCn1c(-c2ccc3onc(C)c3c2)nc2ccc(N3CCOCC3)cc21
2. CCS(=O)(=O)Nc1cc2c(C)noc2cc1C
3. CCC(C)n1c(-c2ccc3onc(C)c3c2)nc2ccc(N3CCOCC3)cc21 (stereo not given)
4. Cc1cc2onc(C)c2cc1NS(=O)(=O)c1ccccc1C(=O)O
5. CCCOc1cc2onc(C)c2cc1NS(=O)(=O)c1cc(Br)ccc1OC

Output:
[3.14, 3.72, 3.56, 3.76, 2.62]

Dear colleague, could you please provide log10 IC50 for the compounds listed below?
1. COc1ccc(Br)cc1S(=O)(=O)Nc1cc2c(C)noc2cc1O
2. COC(=O)c1ccccc1S(=O)(=O)Nc1cc2c(C)noc2cc1C
3. CCCCn1c(-c2ccc3onc(C)c3c2)nc2ccc(N3CCOCC3)cc21
4. Cc1cc2onc(C)c2cc1NS(=O)(=O)C1CCCC1

Output:
[2.36, 3.84, 3.06, 3.48]

====

Biological target: Bromodomain-containing protein 1 (Homo sapiens) (UniProt O95696)
Sequence (whole entry): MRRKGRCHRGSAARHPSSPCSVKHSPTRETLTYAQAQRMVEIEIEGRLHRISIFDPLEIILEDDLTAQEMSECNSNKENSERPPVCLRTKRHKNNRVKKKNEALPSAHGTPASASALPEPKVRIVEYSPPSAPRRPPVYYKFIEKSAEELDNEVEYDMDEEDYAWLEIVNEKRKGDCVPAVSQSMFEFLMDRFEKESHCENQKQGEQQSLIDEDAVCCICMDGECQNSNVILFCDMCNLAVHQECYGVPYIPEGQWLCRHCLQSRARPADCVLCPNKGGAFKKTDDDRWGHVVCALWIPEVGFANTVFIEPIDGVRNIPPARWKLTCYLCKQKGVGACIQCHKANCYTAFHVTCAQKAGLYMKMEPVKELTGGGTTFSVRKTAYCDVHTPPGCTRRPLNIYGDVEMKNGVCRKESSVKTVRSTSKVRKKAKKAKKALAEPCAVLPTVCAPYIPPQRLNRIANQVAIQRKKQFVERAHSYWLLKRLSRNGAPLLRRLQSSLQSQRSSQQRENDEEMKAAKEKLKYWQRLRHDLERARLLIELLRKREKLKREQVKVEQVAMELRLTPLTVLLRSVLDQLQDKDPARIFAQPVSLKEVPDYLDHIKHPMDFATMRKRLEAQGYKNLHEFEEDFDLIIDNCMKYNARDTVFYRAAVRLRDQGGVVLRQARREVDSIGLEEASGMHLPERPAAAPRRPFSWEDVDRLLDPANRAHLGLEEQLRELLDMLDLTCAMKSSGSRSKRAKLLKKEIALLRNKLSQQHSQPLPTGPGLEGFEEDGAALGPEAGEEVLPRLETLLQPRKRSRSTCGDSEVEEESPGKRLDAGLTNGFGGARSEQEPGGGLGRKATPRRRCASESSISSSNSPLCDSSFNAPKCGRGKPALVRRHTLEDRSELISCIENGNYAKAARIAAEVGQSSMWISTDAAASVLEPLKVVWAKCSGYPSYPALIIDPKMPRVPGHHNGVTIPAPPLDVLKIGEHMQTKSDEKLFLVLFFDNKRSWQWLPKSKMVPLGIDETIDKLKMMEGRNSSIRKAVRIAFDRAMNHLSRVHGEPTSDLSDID
Assay: Binding affinity to human recombinant His6-tagged BRD1 (E556 to A688 residues) expressed in Escherichia coli BL21 (DE3) cells assessed as change in melting temperature at 200 uM incubated for 30 mins by SYPRO orange dye based thermal shift assay
Assignment: determine reported ΔTm for the given compounds.
Answers are plain numbers, in °C.

Examples from the recorded data:
> print(dat)
                               entry.smiles                              assay.system  readout  observed.result
1  CNc1cc2onc(C)c2cc1NS(=O)(=O)c1cc(Br)ccc1OC  Bromodomain-containing protein 1 (Homo sapiens) (UniProt O95696)      ΔTm             -0.4
2  Cc1noc2c(Br)cc(-c3nc4ccc(N5CCOCC5)cc4n3CC3CCCCC3)cc12  Bromodomain-containing protein 1 (Homo sapiens) (UniProt O95696)      ΔTm                0
3  COc1cc2onc(C)c2cc1NS(=O)(=O)c1cc(Br)ccc1OC  Bromodomain-containing protein 1 (Homo sapiens) (UniProt O95696)      ΔTm             -0.1

Below: the item to evaluate.
Measured ΔTm, Cc1noc2ccc(-c3nc4ccc(N5CCOC[C@@H]5C)cc4n3CC3CCCCC3)cc12 : 0.3
